molecular target: Recombinant human Menin protein (2-610) / MLL polypeptide binding (Homo sapiens (Human), UniProt O00255); test: Menin and MLL protein binding at a molecular level (fluorescence polarization method); details: inhibition of Menin / MLL polypeptide binding
Sequence (O00255 2-610): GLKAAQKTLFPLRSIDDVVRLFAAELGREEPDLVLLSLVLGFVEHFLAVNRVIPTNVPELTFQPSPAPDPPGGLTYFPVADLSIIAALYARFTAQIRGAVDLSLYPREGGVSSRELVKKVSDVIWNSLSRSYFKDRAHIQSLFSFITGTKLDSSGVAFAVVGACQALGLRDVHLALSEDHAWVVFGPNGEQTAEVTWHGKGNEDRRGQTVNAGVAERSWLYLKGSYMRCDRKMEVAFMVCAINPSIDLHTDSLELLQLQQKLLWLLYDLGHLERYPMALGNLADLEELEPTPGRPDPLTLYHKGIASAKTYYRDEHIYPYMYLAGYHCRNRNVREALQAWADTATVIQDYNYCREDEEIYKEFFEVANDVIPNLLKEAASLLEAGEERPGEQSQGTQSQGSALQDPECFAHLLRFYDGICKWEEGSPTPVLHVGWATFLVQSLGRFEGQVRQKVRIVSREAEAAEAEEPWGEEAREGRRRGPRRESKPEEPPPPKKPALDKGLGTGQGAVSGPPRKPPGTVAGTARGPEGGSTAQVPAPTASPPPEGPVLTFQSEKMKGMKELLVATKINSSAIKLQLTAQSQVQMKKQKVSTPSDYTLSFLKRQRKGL
pIC50: −log10 of the molar value.
MEASURE: pIC50

Example compounds with recorded pIC50:
COMPOUND: CCN(C(=O)c1cc(F)ccc1Oc1nncnc1N1CC2(CCN(Cc3ccc4[nH]ncc4c3)CC2)C1)C(C)C [Compound 64]
VALUE: 6.79

COMPOUND: COc1cc(N2CCC(CN3CCC4(CC3)CN(c3ncnnc3Oc3ccc(F)cc3C(=O)NC(C)C)C4)CC2)nnc1OC [Compound 177]
VALUE: 7.33

COMPOUND: CCN(C(=O)c1cc(F)ccc1Oc1nncnc1N1CC2(CCN(CC3CCN(CC(O)C(N)=O)CC3)CC2)C1)C(C)C (stereo not drawn) [Compound 147]
VALUE: 6.93

COMPOUND: CCN(C(=O)c1cc(F)ccc1Oc1nncnc1N1CC2(CCN(CC3CCN(c4ccncc4C(N)=O)CC3)CC2)C1)C(C)C [Compound 150]
VALUE: 7.38

COMPOUND: CCN(C(=O)c1cc(F)ccc1Oc1nncnc1N1CC2(CCN(CC3CCN(Cc4c(C)cc(C)[nH]c4=O)CC3)CC2)C1)C(C)C [Compound 138]
VALUE: 6.99

COMPOUND: CCN(C(=O)c1cc(F)ccc1Oc1nncnc1N1CC2(CCN(CC3CCN(C(=O)OC)CC3)CC2)C1)C(C)C [Compound 170]
VALUE: 7.46

(A) CCN(C(=O)c1cc(F)ccc1Oc1nnc(NC)nc1N1CC2(CCN(Cc3ccc4c(cc(C#N)n4CCO)c3C)CC2)C1)C(C)C [Compound 156]
(B) CCN(C(=O)c1cc(F)ccc1Oc1nncnc1N1CC2(CCN(Cc3ccc4[nH]c(C#N)c(C5=CCOCC5)c4c3C)CC2)C1)C(C)C [Compound 131]
[in] Which record shows the lower pIC50: the first, A , or the second, B ? Reply with the label of the item you choose.
[out] A
(A: 7.36, B: 7.74)

(A) CCN(C(=O)c1cc(F)ccc1Oc1nncnc1N1CC(C2(N(C)Cc3ccc4[nH]c(C#N)cc4c3C)CC2)C1)C(C)C [Compound 139]
(B) CCN(C(=O)c1cc(F)ccc1Oc1nncnc1N1CC2(CCN(Cc3ccc4c(cc(C#N)n4CCO)c3C)CC2)C1)C(C)C [Compound 154]
[in] Which shows the larger pIC50 value: A or B ? Reply with the label of the item you choose.
[out] B
(B: 9.10, A: 8.21)

(a) CCN(C(=O)c1cc(F)ccc1Oc1nncnc1N1CC2(CCN(Cc3ccc4oc(C)nc4c3)CC2)C1)C(C)C [Compound 67]
(b) COc1cc(N2CCC(CN3CCC4(CC3)CN(c3ncnnc3Oc3ccc(F)cc3C(=O)N3CCCC3)C4)CC2)nnc1OC [Compound 99]
[in] Which record shows the lower pIC50: the first, a , or the second, b ? Reply with the label of the item you choose.
[out] a
(a: 6.29, b: 7.83)

(A) CCN(C(=O)c1cc(F)ccc1Oc1nncnc1N1CCC2(CN(CC3CCN(c4cc(OC)c(OC)nn4)CC3)C2)C1)C(C)C [Compound 94]
(B) CCN(C(=O)c1cc(F)ccc1Oc1nncnc1N1CC2(CCN(CC3CCN(S(C)(=O)=O)CC3)CC2)C1)C(C)C [Compound 22]
[in] Which shows the larger pIC50 value: A or B ? Reply with the label of the item you choose.
[out] A
(A: 9.10, B: 6.95)

(I) CCN(C(=O)c1cc(F)ccc1Oc1nncnc1N1CC2(CCN(CC3CCN(c4ccc(C)nn4)CC3)CC2)C1)C(C)C [Compound 84]
(II) CCN(C(=O)c1cc(F)ccc1Oc1nncnc1N1CC2(CCN(CC3CCN(C(=O)c4cnn(C)c4)CC3)CC2)C1)C(C)C [Compound 16]
(III) CCN(C(=O)c1cc(F)ccc1Oc1nncnc1N1CC2(CCN(CC3CCN(c4nc(C#N)co4)CC3)CC2)C1)C(C)C [Compound 80]
(IV) CCN(C(=O)c1cc(F)ccc1Oc1nncnc1N1CC(C2CCCN2Cc2ccc3[nH]c(C#N)cc3c2C)C1)C(C)C (stereo not drawn) [Compound 129]
[in] Task for the reader: rank each entry by its pIC50, from the minimum upward. List labels; respect the requested ordering.
[out] IV, II, III, I

(I) Cc1ccc(N2CCC(CN3CCC4(CC3)CN(c3ncnnc3Oc3ccc(F)cc3-c3ccnn3C(C)C)C4)CC2)nn1 [Compound 86]
(II) CCN(C(=O)c1cc(F)ccc1Oc1nncnc1N1CC2(CCN(CC3CCN(C(=O)COC)CC3)CC2)C1)C(C)C [Compound 9]
[in] Which shows the larger pIC50 value: I or II ? Reply with the label of the item you choose.
[out] I
(I: 8.96, II: 7.42)

(P) CCN(C(=O)c1cc(F)ccc1Oc1nncnc1N1CC2(CCN(CC3CCN(c4cc(C(N)=O)ccn4)CC3)CC2)C1)C(C)C [Compound 52]
(Q) CCN(C(=O)c1cc(F)ccc1Oc1nncnc1N1CC2(CCN(CC3(N(C)CCOC)CC3)CC2)C1)C(C)C [Compound 140]
(R) COc1cc(N2CCC(CN3CCC4(CC3)CN(c3ncnnc3Oc3ccc(F)c5nn(C(C)C)cc35)C4)CC2)nnc1OC [Compound 105]
(S) CCN(C(=O)c1cc(F)ccc1Oc1nncnc1N1CC2(CCN(CC3CCN(c4cnc(OC)c(OC)c4)CC3)CC2)C1)C(C)C [Compound 111]
(T) CCN(C(=O)c1cc(F)ccc1Oc1nncnc1N1CC2(CCN(CC3CCN(C4=NN5CCC(=O)N=C5C=C4)CC3)CC2)C1)C(C)C [Compound 83]
[in] Hello, I need these entries ordered by pIC50, highest reading first. Thanks! List labels; respect the requested ordering.
[out] P, S, Q, T, R

---

system: MV-4-11 cells (human acute myelogenous leukemia cell line carrying MLL-AF4 mutation); assay: Cell proliferation assay, MV-4-11 (CellTiter-Glo); format: cell-based; conditions: Homo sapiens, MV4-11, 72 h, MV-4-11 cells, 3 days treatment, CellTiter-Glo; read-out: GI50
MEASURE: GI50 (nM)

MOLECULE: CCN(C(=O)c1cc(F)ccc1Oc1nncnc1N1CC2(CCN(CC3CCN(c4ccn5nccc5n4)CC3)CC2)C1)C(C)C [Compound 82]
MEASURE: GI50
VALUE: 7

MOLECULE: CCN(C(=O)c1cc(F)ccc1Oc1nncnc1N1CC2(CCN(CC3CCC(c4ccccn4)CC3)CC2)C1)C(C)C (stereo not shown) [Compound 135]
MEASURE: GI50
VALUE: 22

MOLECULE: COc1cc(N2CCC(CN3CCC4(CC3)CN(c3ncnnc3Oc3ccc(F)cc3)C4)CC2)nnc1OC [Compound 102]
MEASURE: GI50
VALUE: 28

(a) CCN(C(=O)c1cc(F)ccc1Oc1nncnc1N1CC2(CCN(CC3CCN(Cc4c(C)cc(C)[nH]c4=O)CC3)CC2)C1)C(C)C [Compound 138]
(b) CCN(C(=O)c1cc(F)ccc1Oc1nncnc1N1CC2(CCN(CC3CCN(c4ccc(C#N)cn4)CC3)CC2)C1)C1CC1 [Compound 116]
[in] Which record shows the lower GI50: the first, a , or the second, b ? Reply with the label of the item you choose.
[out] b
(b: 70 nM, a: 409 nM)

(1) C=CC(=O)Nc1ccc(N2CC3(CCC(CN4CCC5(CC4)CN(c4ncnnc4Oc4ccc(F)cc4C(=O)N(CC)C(C)C)C5)CC3)C2)cc1 [Compound 180]
(2) CCN(C(=O)c1cc(F)ccc1Oc1nncnc1N1CC2(CCN(CC3CCN(c4ccnc(OC)c4)CC3)CC2)C1)C(C)C [Compound 114]
[in] Which shows the larger GI50 value: 1 or 2 ? Reply with the label of the item you choose.
[out] 1
(1: 10 nM, 2: 3 nM)

---

test system: MV-4-11 cells (human acute myelogenous leukemia cell line carrying MLL-AF4 mutation); experiment: Cell proliferation assay, MV-4-11 (CellTiter-Glo); assay type: cell-based; settings: Homo sapiens, MV4-11, 72 h, MV-4-11 cells, 3 days treatment, CellTiter-Glo; read-out: GI50
MEASURE: GI50 (nM)

MOLECULE: CCN(C(=O)c1cc(F)ccc1Oc1nncnc1N1CC2(CCN(CC3CCN(c4ccc(OC)nn4)CC3)CC2)C1)C(C)C
UNIT_STRING: nM
GI50: 4

(I) N#Cc1ccc(N2CCC(CN3CCC4(CC3)CN(c3ncnnc3Oc3ccc(F)cc3C3=C(F)C(O)CCC3)C4)CC2)nc1 (centres unmarked)
(II) CCN(C(=O)c1cc(F)ccc1Oc1nncnc1N1CC2(CCN(C(C)C3CCN(c4cc(OC)c(OC)nn4)CC3)CC2)C1)C(C)C (centres unmarked)
(III) CCN(C(=O)c1cc(F)ccc1Oc1nncnc1N1CC2(CCN(CC3CCN(c4cccc(CO)n4)CC3)CC2)C1)C(C)C
[in] Task for the reader: rank each entry by its GI50, from the minimum upward. List labels; respect the requested ordering.
[out] III, II, I
